TARGET OR TEST SYSTEM: T1, recombinant human Siglec-8 extracellular domain (ECD) (human, UniProt Q9NYZ4 17-363)
T1 construct: extracellular domain; also called Siglec-8 ECD; full Siglec-8 ECD
T1 sequence (Q9NYZ4 17-363): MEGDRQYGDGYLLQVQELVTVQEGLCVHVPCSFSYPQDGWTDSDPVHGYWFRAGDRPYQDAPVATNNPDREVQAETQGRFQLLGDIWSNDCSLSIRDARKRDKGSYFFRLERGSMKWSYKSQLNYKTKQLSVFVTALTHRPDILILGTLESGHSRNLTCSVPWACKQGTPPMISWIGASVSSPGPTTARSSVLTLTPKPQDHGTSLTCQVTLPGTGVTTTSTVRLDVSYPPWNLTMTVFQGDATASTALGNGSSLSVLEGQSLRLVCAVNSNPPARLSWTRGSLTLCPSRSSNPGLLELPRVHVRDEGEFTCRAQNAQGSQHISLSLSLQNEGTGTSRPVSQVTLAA
TEST SUMMARY: ELISA, coated Siglec-8 ECD
pEC50: −log10 of the molar value.
So basically: pEC50 at 10 or higher? That is condition met. Lower than 10? That is condition not met.

Sample answers from the record:
binder="HCKF (antibody, human IgG1, V domains shown, human IgG1/kappa) VH: EVQLVESGGGLVQPGGSLRLSCAVSGFSLTIYGAHWVRQAPGKGLEWVSVIWAGGSTNYNSALMSRFTISKDNSKNTVYLQMNSLRAEDTAVYYCARDGSSPYYYSMEYWGQGTTVTVSS VL: EIVLTQSPATLSLSPGERATLSCSATSSVSYMHWFQQKPGQAPRLLIYSTSNLASGIPARFSGSGSGTDYTLTISSLEPEDFAVYYCQQRSSYPFTFGPGTKLDIK" label_class="condition met"
binder="RHE S-GKC (antibody, human IgG1, V domains shown, human IgG1/kappa) VH: EVQLVESGGGLVQPGGSLRLSCAASGFSLTIYGAHWVRQAPGKGLEWVGVIWAGGSTNYNSALMSRFTISKDNSKNTVYLQMNSLRAEDTAVYYCARDGSSPYYYGMEYWGQGTTVTVSS VL: EIILTQSPATLSLSPGERATLSCSATSSVSYMHWFQQKPGQAPRLLIYSTSNLASGIPARFSGSGSGTDFTLTISSLEPEDFAVYYCQQRSSYPFTFGPGTKLDIK" label_class="condition not met"

Challenge: Does pEC50 meet or surpass 10 for HDKD (antibody, human IgG1, V domains shown, human IgG1/kappa) VH: EVQLVESGGGLVQPGGSLRLSCAASGFSLTIYGAHWVRQAPGKGLEWLSVIWAGGSTNYNSALMSRFTISKDNSKNTVYLQMNSLRAEDTAVYYCARDGSSPYYYSMEYWGQGTTVTVSS VL: EIVLTQSPATLSLSPGERATLSCSATSSVSYMHWFQQKPGQAPRLWIYSTSNLASGIPARFSGSGSGTDFTLTISSLEPEDFAVYYCQQRSSYPFTFGPGTKLDIK ?
Response given: condition met
